# target: σ-receptor
# experiment-summary: Binding activity for σ-receptor, [3H]DTG displacement in rat brain membrane preparation
# Design: species or system Sprague-Dowley rat
# condition-set: radioligand constant used to calculate Ki; read-out: Kd, affinity of radioactive ligand for receptor
observable: Kd (nM)
// units = nM; emit number, no label

For Cc1ccccc1NC(=N)Nc1ccccc1C [DTG, 1,3-di(2-tolyl) guanidine, reference compound] , write its Kd.
10.6

====

# target: σ-receptor
# experiment-summary: Binding activity for σ-receptor, [3H]DTG displacement in rat brain membrane preparation
# condition-set: rat whole brain (except cerebella) membrane, [3H]DTG 3 nM, 25°C 60 minutes; compounds tested as hydrochloride; read-out: Sigma [^3H] DTG Ki
observable: Ki (nM)
Numbers only here, please. The scale is nM.

Below: 5 molecules and their reported Ki.
molecule | val
CC1CCC(CCN2CC3CC[C@](C)(C2)C3(C)C)CC1 (stereo partly shown) | 2.23
CC1(C)C2CC[C@@]1(C)CN(CC1CCCCC1)C2 | 2.53
CC1(C)C2CC[C@@]1(C)CN(CCc1cccc3ccccc13)C2 | 2.22
CC1(C)C2CC[C@@]1(C)CN(CCc1ccccn1)C2 | 16.1
CC1(C)C2CC[C@]1(C)CN(CCC1C3CC4CC(C3)CC1C4)C2 (stereo partly shown) | 0.32

Provide σ-receptor Ki reading for `CC1(C)C2CC[C@]1(C)CN(CCc1cccnc1)C2` .
79.5

Param request: Ki | system σ-receptor | item `CC1(C)C2CC[C@]1(C)CN(CCC1CCCCCCC1)C2`
0.5
